Assay Overview: qHTS profiling for inhibitors of Plasmodium falciparum proliferation (AID 504749); further: nearly all actives have a fitted effect of over 60% in size;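 on activity, negative = inhibition: 0% = DMSO vehicle and full inhibition = artemisinin control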
Study Conditions: P. falciparum in erythrocytes, SYBR Green DNA, 72 h; at 12.8 µM (top of the series); parasite line B
Records with an inconclusive call do not appear.
Endpoint Name: activity, negative = inhibition (%)

compound_structure=Cc1cc(C(=O)NNCc2ccccc2)no1 numeric_value=-1.58
compound_structure=CC(C)(C)C(=O)OCOC(=O)[C@@H]1N2C(=O)[C@@H](N=CN3CCCCCC3)[C@H]2SC1(C)C numeric_value=5.1
compound_structure=CC(C)N=c1cc2n(-c3ccc(Cl)cc3)c3ccccc3nc-2cc1Nc1ccc(Cl)cc1 numeric_value=-1.3
compound_structure=CC1(C)S[C@@H]2[C@H](NC(=O)[C@@H](NC(=O)N3CCNC3=O)c3ccccc3)C(=O)N2[C@H]1C(=O)O numeric_value=-0.988

====

Test system: CP252
Assay Overview: qHTS profiling for inhibitors of Plasmodium falciparum proliferation (AID 504749); further: nearly all actives have a fitted effect of over 60% in size
Study Conditions: P. falciparum in erythrocytes, SYBR Green DNA, 72 h; series mostly up to 28.7 µM
Records with an inconclusive call do not appear. Calls of active or inactive are those of the source. Calls follow the shape of the dose curve; as a rule, active = well fitted inhibition curve with a large enough effect; inconclusive = small, poorly fitted or top-dose-only effect; inactive = flat fitted curve, though single readings scatter.
Classes used: active, inactive

compound="NC(=O)c1ncn(C2OC(CO)C(O)C2O)n1 (stereo not drawn)" measured_on=CP252 label_value=inactive
compound="CCCCCCC(O)C/C=C/CCCCCCCC(=O)O (stereo not drawn)" measured_on=CP252 label_value=inactive
compound=CCOc1ccc(N=Nc2ccc(N)cc2N)cc1 measured_on=CP252 label_value=inactive
compound=COC(=O)CCC(=O)CN measured_on=CP252 label_value=inactive
compound=COC(=O)[C@H]1[C@H]2C[C@@H]3c4[nH]c5ccccc5c4CCN3C[C@H]2C[C@@H](OC(=O)c2cc(OC)c(OC)c(OC)c2)[C@@H]1OC measured_on=CP252 label_value=active
compound=C=CCSSSCC=C measured_on=CP252 label_value=inactive
compound="CC(NNC(=O)c1ccccc1)c1ccccc1 (stereo not drawn)" measured_on=CP252 label_value=inactive
compound=O=C1C(=O)c2ncccc2-c2cccnc21 measured_on=CP252 label_value=active

====

System: CRL-7250
Assay Overview: Cytotoxic Profiling of Annotated Libraries Using Quantitative High-Throughput Screening (AID 1296008); further: nearly all actives have a fitted effect of over 60% in size
Study Conditions: Five cell lines viability, CellTiter-Glo ATP luminescence, 48-72 h
Results filed as inconclusive are left out. Calls of active or inactive are those of the source. The call rests on the fitted dose curve; in most records, active means well fitted inhibition curve with a large enough effect; inconclusive means small, poorly fitted or top-dose-only effect; inactive means flat fitted curve, though single readings scatter.
Classes used: class 1 for active, class 0 for inactive

compound="CC(C)(O)C1CCC2(C)C3C(O)C4C(C13)C42CO (stereo not given)" measured_on=CRL-7250 label_value="class 0"
compound="C=C1CCC2C(C)(C)CC(=O)CC2(C)C1CCC(C)CCOC(C)=O (stereo not given)" measured_on=CRL-7250 label_value="class 0"
compound="COc1ccc(C(O[C@@H]2O[C@H](CO)[C@@H](O)[C@H](O)[C@H]2O)C(CO)Oc2ccc(/C=C/CO)cc2OC)cc1O (stereo not given in full)" measured_on=CRL-7250 label_value="class 0"
compound=C=C(C)[C@@H]1CC[C@](C)(O)[C@@H](OC(=O)c2ccccc2)C1 measured_on=CRL-7250 label_value="class 0"
compound=CCn1nnnc1NCc1ccc(C(C)C)cc1 measured_on=CRL-7250 label_value="class 0"
compound=C[C@@H]1CC[C@H]2C(C)(C)[C@H](O)[C@H](O)C[C@]2(C)[C@@]12Cc1c(O)cc3c(c1O2)CNC3=O measured_on=CRL-7250 label_value="class 0"
compound="C=CC(C)(O)CC/C=C(/C)C(=O)OC1C(OC2OCC(OC3OC(CO)C(O)C(O)C3O)C(OC3OCC(O)C(OC4OC(C)C(O)C(O)C4O)C3O)C2O)COC(OC(=O)C23CCC(C)(C)CC2C2=CCC4C5(C)CCC(OC6OC(CO)C(OC7OC(CO)C(O)C(OC8OCC(O)C(O)C8O)C7O)C(O)C6O)C(C)(C)C5CCC4(C)C2(C)CC3O)C1O (stereo not given)" measured_on=CRL-7250 label_value="class 0"
compound="CC(=O)N[C@H]1[C@H](O[C@H]2CC[C@@]3(C)C(CC[C@]4(C)C3CC=C3C5CC(C)(C)CC[C@]5(C(=O)O)[C@H](O[C@@H]5O[C@H](CO)[C@@H](O)[C@H](O)[C@H]5O)C[C@]34C)C2(C)C)O[C@H](CO[C@@H]2OC[C@H](O)[C@H](O)[C@H]2O[C@@H]2OC[C@@H](O)[C@H](O)[C@H]2O)[C@@H](O)[C@@H]1O (stereo not given in full)" measured_on=CRL-7250 label_value="class 0"
compound="CC1C(=O)CC2C3C(O)CC(C(=O)O)C12CC3(C)C (stereo not given)" measured_on=CRL-7250 label_value="class 0"
compound="COc1cc(CC(COC2OC(CO)C(O)C(O)C2O)c2cc(/C=C/CO)cc(OC)c2O)ccc1O (stereo not given)" measured_on=CRL-7250 label_value="class 0"
compound="COc1c(OC2OC(CO)C(O)C(O)C2O)ccc(O)c1C(=O)OCc1ccccc1O[C@@H]1O[C@H](CO)[C@@H](O)[C@H](O)[C@H]1O (stereo not given in full)" measured_on=CRL-7250 label_value="class 0"
compound=Cn1c(=O)c2nc(/C=C/c3cccc(Cl)c3)n(C)c2n(C)c1=O measured_on=CRL-7250 label_value="class 0"
compound=O=C(/C=C/c1ccc(O)cc1)OC[C@H]1O[C@@H](OC(=O)/C=C/c2ccccc2)[C@H](O)[C@@H](O)[C@@H]1O measured_on=CRL-7250 label_value="class 0"
compound=NC(=O)c1cccc(-c2cc(O)cc(OC(=O)NC3CCCCC3)c2)c1 measured_on=CRL-7250 label_value="class 0"
compound=CN1C(=O)c2ccccc2-n2c(nc3ccccc3c2=O)/C1=C/c1ccccc1 measured_on=CRL-7250 label_value="class 0"
compound=C=C1CC[C@H]2[C@@H](/C=C(\C)C(=O)[C@@]3(OC(C)=O)C[C@H](C)[C@H](OC(C)=O)[C@@H]3[C@H]1OC(C)=O)C2(C)C measured_on=CRL-7250 label_value="class 0"
compound="COC(=O)[C@@H]1C2CC3c4[nH]c5ccccc5c4CCN3CC2CC[C@@H]1O (stereo not given in full)" measured_on=CRL-7250 label_value="class 0"
compound="CC[C@H]1OC(=O)[C@H](C)[C@@H](OC2C[C@@](C)(OC)[C@@H](O)[C@H](C)O2)[C@H](C)[C@@H](OC2O[C@H](C)C[C@H](NC)[C@H]2O)[C@](C)(O)C[C@@H](C)CN(C)[C@H](C)[C@@H](O)[C@]1(C)O (stereo not given in full)" measured_on=CRL-7250 label_value="class 0"
compound=CO[C@@H](Cc1ccc(OCCc2nc(-c3ccccc3)oc2C)c2ccsc12)C(=O)O measured_on=CRL-7250 label_value="class 0"
compound=CC(=O)OCC1=C[C@H](O)[C@@H]2C(C(=O)O)=CO[C@@H](O[C@@H]3O[C@H](CO)[C@@H](O)[C@H](O)[C@H]3O)[C@H]12 measured_on=CRL-7250 label_value="class 0"
compound=COc1cccc(-n2nc(C(=O)O)cc2-c2ccc(C3CCCCC3)c(Cl)c2)c1 measured_on=CRL-7250 label_value="class 0"
compound=COc1ccc(C)c2sc(NC(=O)c3ccncc3)nc12 measured_on=CRL-7250 label_value="class 0"
compound=O=C1CC(c2ccc([N+](=O)[O-])cc2)=NN1c1ccccc1 measured_on=CRL-7250 label_value="class 0"
compound=c1ccc(C(OC2CCN(CCCc3nn[nH]n3)CC2)c2ccccc2)cc1 measured_on=CRL-7250 label_value="class 0"
compound="CC1(CO)CC[C@]2(C(=O)O[C@@H]3O[C@H](CO)[C@@H](O)[C@H](O)[C@H]3O)CC[C@]3(C)C(=CCC4[C@@]5(C)C[C@H](O)[C@H](O[C@@H]6OC[C@@H](O)[C@H](O)[C@H]6O)[C@@](C)(CO)C5CC[C@]43C)C2C1 (stereo not given in full)" measured_on=CRL-7250 label_value="class 0"
compound="COc1cc(/C=C/C(=O)OC2CC3CCC2(C)C3(C)C)ccc1O (stereo not given)" measured_on=CRL-7250 label_value="class 0"
compound="O=c1ccn(C2OC(CO)C(O)C2O)c(=O)[nH]1 (stereo not given)" measured_on=CRL-7250 label_value="class 0"
compound="NC(Cc1c[nH]c2ccccc12)C(=O)NC(CCC(=O)O)C(=O)O (stereo not given)" measured_on=CRL-7250 label_value="class 0"
compound=CC(C)c1nc(N(C)S(C)(=O)=O)nc(-c2ccc(F)cc2)c1/C=C/[C@@H](O)C[C@@H](O)CC(=O)O measured_on=CRL-7250 label_value="class 1"
compound=C/C=C(\C)C(=O)O[C@H]1[C@@H](O[C@]2(COC(=O)CC(C)C)O[C@H](COC(=O)C(C)C)[C@@H](OC(C)=O)[C@@H]2O)O[C@H](COC(C)=O)[C@@H](O)[C@@H]1O measured_on=CRL-7250 label_value="class 0"
